# SUBJECT OF TEST: T1, histidine-tagged human Siglec-7 (NovoProtein) (human, UniProt Q9Y286 19-353)
# T1 construct: Bought protein; also called recombinant human Siglec-7; recombinant Siglec-7; not shown: histidine tag
# ASSAY NAME: BLI, antibody captured
MEASUREMENT NAME: kon (M⁻¹ s⁻¹)
One number for each entry, in M⁻¹ s⁻¹.

Consider the reported kon for these binders:
BINDER: S7AB-H8.45 (antibody, V domains shown) VH: QVQLVQSGAEVKKPGASVKVSCKASGYAFTEAWMNWVRQAPGQGLEWIGRIFPGYGHTNYAQKFQGRATLTEDTSTSTAYMELSSLRSEDTAVYYCARDYSDYYFDYWGQGTLVTVSS VL: DIQMTQSPSSLSASVGDRVTITCRGSQDINTYLNWYQQKPGKAPKLLIYYTSRLHSGVPSRFSGSGSGTDYTLTISSLQPEDFATYYCQQGNILPWTFGQGTKLEIK
kon (M⁻¹ s⁻¹): 170000
--
BINDER: S7AB-H8.14 (antibody, V domains shown) VH: QVQLVQSGAEVKKPGASVKVSCKASGYAFTAAWMNWVRQAPGQGLEWIGRIFPGLGHTNYAQKFQGRATLTEDTSTSTAYMELSSLRSEDTAVYYCARDYSDYYFDYWGQGTLVTVSS VL: DIQMTQSPSSLSASVGDRVTITCRGSQDINTYLNWYQQKPGKAPKLLIYYTSRLHSGVPSRFSGSGSGTDYTLTISSLQPEDFATYYCQGGNTLPWTFGQGTKLEIK
kon (M⁻¹ s⁻¹): 3260

Now consider the entry below.
For record S7AB-H8.3 (antibody, V domains shown) VH: QVQLVQSGAEVKKPGASVKVSCKASGYAFTGYWMNWVRQAPGQGLEWIGRIFPGLGHTNYAQKFQGRATLTEDTSTSTAYMELSSLRSEDTAVYYCARDYSDYYFDYWGQGTLVTVSS VL: DIQMTQSPSSLSASVGDRVTITCRGSQDINTYLNWYQQKPGKAPKLLIYYTSRLHSGVPSRFSGSGSGTDYTLTISSLQPEDFATYYCQQGNLLPWTFGQGTKLEIK the listed kon is 206000
